{"columns": ["Mol Smiles", "melting point"],
 "data": [
  ["CC(C)(C)OC(=O)NC[C@H]1CN(c2ccc3c(c2)CCCc2cnoc2-3)C(=O)O1", "180 to 184 °C"],
  ["O=C(CC1CC1)NC[C@H]1CN(c2ccc3c(c2)CCCc2cn[nH]c2-3)C(=O)O1", "212 to 215 °C"],
  ["O=C(NC[C@H]1CN(c2ccc3c(c2)CCCc2cnoc2-3)C(=O)O1)c1ccccc1", "240 to 245 °C"],
  ["CCOC(=O)NC[C@H]1CN(c2ccc3c(c2)CCCc2cnoc2-3)C(=O)O1", "181 to 183 °C"],
  ["CCC(=O)NC[C@H]1CN(c2ccc3c(c2)CCCc2cnoc2-3)C(=O)O1", "185 to 186 °C"],
  ["O=C(CC(F)(F)F)NC[C@H]1CN(c2ccc3c(c2)CCCc2cn[nH]c2-3)C(=O)O1", "243 to 245 °C"],
  ["O=C(NC[C@H]1CN(c2ccc3c(c2)CCCc2cnn(C(=O)c4ccccc4)c2-3)C(=O)O1)c1ccccc1", "75 to 95 °C"],
  ["COC(=O)CC(=O)NC[C@H]1CN(c2ccc3c(c2)CCCc2cnoc2-3)C(=O)O1", "205 to 217 °C"],
  ["O=C(NC[C@H]1CN(c2ccc3c(c2)CCCc2cn[nH]c2-3)C(=O)O1)C(F)F", "147 to 150 °C"]
]}

Cited source for all entries: patent US20050288273A1
